Hey, just so you know, these numbers are from ChEMBL document CHEMBL5325405.

// UniProt Q13547 pIC50 records
Sequence (Q13547 whole entry): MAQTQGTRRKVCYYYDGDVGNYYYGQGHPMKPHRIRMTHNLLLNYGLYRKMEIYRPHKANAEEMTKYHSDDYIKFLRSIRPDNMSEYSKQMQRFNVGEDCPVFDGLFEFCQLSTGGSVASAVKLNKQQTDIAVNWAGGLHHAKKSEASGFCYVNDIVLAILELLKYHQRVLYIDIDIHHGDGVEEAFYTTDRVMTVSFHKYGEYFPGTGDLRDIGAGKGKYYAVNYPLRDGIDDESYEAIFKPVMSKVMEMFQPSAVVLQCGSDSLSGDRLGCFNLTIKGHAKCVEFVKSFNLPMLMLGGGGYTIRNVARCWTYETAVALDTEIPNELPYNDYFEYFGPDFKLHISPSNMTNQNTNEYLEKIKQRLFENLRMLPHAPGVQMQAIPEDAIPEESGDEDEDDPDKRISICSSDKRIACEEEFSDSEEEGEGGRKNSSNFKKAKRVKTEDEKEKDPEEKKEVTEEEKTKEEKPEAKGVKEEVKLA
Scale note: pIC50 = -log10(concentration in M).

>  <Compound>
COc1cc2c(cc1OC)C(=O)C(CC1CCN(Cc3ccc(NC(=O)CCCCCCC(=O)NO)cc3)CC1)C2 (stereo not drawn)

>  <Tested System>
UniProt Q13547

>  <Val>
6.50

$$$$
>  <Compound>
COc1cc2c(cc1OC)C(=O)C(CC1CCN(S(=O)(=O)c3cccc(/C=C/C(=O)NO)c3)CC1)C2 (stereo not drawn)

>  <Tested System>
UniProt Q13547

>  <Val>
5.78

$$$$

Below: the item to evaluate.
stdin: Tell me pIC50 reported for COc1cc2c(cc1OC)C(=O)C(CC1CCN(Cc3ccc(/C=C/C(=O)NO)cc3)CC1)C2 (stereo not drawn)
stdout: 5.61
